Parameter glycan array binding signal (z-score): see the listing below.
Experimental Target: Neu5Ac(a2-3)[Neu5Ac(a2-6)]GalNAc
Run Description: glycan array binding signal (z-score within array); higher = stronger binding
Condition Description: glycan notation: IUPAC condensed, linker removed
This excerpt belongs to a sample that is enriched for the strongest signals.
Attribute Measured: glycan array binding signal (z-score)

1. Surfactant Protein D (Human); Neck + Carbohydrate Recognition Domain (NCRD) (Homo sapiens) (protein) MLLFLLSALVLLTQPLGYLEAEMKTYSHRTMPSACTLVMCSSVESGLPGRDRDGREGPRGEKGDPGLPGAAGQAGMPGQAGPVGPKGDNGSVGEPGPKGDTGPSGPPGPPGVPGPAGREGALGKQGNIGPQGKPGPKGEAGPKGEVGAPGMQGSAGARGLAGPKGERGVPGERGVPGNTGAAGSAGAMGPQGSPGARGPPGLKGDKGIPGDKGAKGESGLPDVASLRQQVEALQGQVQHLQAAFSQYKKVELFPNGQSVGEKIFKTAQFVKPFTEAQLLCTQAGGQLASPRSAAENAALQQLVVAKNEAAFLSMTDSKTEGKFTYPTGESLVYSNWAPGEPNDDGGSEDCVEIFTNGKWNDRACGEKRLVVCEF | -0.296
2. Dectin-1 CTLD (Mus musculus), Q6QLQ4 (protein) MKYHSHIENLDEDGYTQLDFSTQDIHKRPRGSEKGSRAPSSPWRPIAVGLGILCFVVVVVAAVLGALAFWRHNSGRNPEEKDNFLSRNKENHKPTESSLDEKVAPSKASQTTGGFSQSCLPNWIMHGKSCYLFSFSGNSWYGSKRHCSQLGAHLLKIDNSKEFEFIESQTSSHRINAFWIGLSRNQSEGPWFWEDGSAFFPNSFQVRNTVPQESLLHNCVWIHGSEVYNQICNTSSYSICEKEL | -0.211
3. LFA (Limax flavus) (protein) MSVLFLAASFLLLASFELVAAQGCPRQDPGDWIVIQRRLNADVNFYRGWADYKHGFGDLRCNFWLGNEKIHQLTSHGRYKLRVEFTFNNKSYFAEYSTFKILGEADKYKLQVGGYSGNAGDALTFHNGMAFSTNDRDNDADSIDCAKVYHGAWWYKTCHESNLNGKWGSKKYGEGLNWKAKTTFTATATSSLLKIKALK | 1.01
4. CCL1 (Coprinopsis cinerea) (protein) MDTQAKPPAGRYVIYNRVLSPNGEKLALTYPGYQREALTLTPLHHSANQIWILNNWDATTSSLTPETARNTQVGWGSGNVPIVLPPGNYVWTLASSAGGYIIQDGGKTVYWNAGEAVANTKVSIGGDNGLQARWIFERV | -0.149
5. HPA (Helix pomatia), Q2F1K8 (protein) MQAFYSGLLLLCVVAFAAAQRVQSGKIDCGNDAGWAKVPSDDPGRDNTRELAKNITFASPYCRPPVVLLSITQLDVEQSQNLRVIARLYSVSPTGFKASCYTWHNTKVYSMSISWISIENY | -0.294
6. Nc3LysM-2 (protein) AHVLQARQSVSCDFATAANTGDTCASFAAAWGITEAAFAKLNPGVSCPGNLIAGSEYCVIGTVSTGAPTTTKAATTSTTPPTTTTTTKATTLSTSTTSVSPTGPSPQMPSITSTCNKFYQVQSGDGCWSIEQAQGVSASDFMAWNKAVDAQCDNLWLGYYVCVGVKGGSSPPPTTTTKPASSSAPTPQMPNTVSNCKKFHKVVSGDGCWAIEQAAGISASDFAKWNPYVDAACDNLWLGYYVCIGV | 0.668

// provenance: the supplement of paper PMC8728848
